Reported interaction score values for a set of binders
Target: T1, 4H909-AA
T1 chain: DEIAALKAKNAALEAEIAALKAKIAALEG
Assay: two-hybrid library CCmax;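 note: natural log of median RNA to DNA barcode read ratio; higher means stronger binding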
Conditions: mean of both orientations

Worked cases, answers included:
[
  {
    "binder": "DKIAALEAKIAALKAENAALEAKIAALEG [4H2389-AA]",
    "interaction score": -1.35
  },
  {
    "binder": "DEIAALKAKIAALKAENAALEAEIAALKG [4H850-AA]",
    "interaction score": -1.47
  },
  {
    "binder": "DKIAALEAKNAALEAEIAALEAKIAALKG [4H2438-AA]",
    "interaction score": 0.42
  },
  {
    "binder": "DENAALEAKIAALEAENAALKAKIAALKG [4H1310-AA]",
    "interaction score": -1.21
  },
  {
    "binder": "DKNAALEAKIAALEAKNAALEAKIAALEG [4H3381-AA]",
    "interaction score": -1.66
  }
]

Q: What does the data say about its interaction score? Entry: DEIAALKAEIAALEAKNAALKAEIAALKG [4H570-AA]
A: -1.22

Q: What does the data say about its interaction score? Entry: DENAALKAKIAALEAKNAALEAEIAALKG [4H1842-AA]
A: -1.17

Q: What does the data say about its interaction score? Entry: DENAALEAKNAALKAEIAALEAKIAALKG [4H1478-AA]
A: -0.497

Cited source for all entries: paper PMC10397247
